# Test: Blood levels after oral administration in mice (bioassay vs. Aspergillus montevidensis A35137)
# Study Conditions: mouse, in vivo, 240 min
# Text: determined by bioassay vs. Aspergillus montevidensis A35137.
Numbered stars: 1 amine (or outer) side, 2 acyl side, 3 side chain; on linkers, the order of the positions; unused ones are H or OH. Bridge positions count the residues as written; N and C are the ends. Square brackets hold non-standard residues; d marks the D form. Peptide text beside a SMILES is read from it. * marks the point of attachment. Orn(4R-OH,5R-OH) = O=C([C@H](C[C@@H](O)[C@@H](O)N[*:3])N[*:1])[*:2]; hTyr(3S-OH,4S-OH) = N[C@H](C(=O)O)[C@H](O)[C@@H](O)c1ccc(O)cc1; Pro(3S-OH,4S-Me) = C[C@H]1CN[C@H](C(=O)O)[C@H]1O; Docosanoyl = CCCCCCCCCCCCCCCCCCCCCC(=O)*; Arachidoyl = CCCCCCCCCCCCCCCCCCCC(=O)*; Oleoyl = CCCCCCCC/C=C\CCCCCCCC(=O)*; Hyp = O=C(O)[C@@H]1C[C@@H](O)CN1; Lauroyl = CCCCCCCCCCCC(=O)*
Value Type: Blood Levels After Oral Administration In Mice

Some entries whose results are on file:
CCCCCCCCCCCCCCCCCCCC(=O)N[C@H]1C[C@@H](O)[C@@H](O)NC(=O)[C@@H]2[C@@H](O)[C@@H](C)CN2C(=O)[C@H]([C@@H](C)O)NC(=O)[C@H]([C@H](O)[C@@H](O)c2ccc(O)cc2)NC(=O)[C@@H]2C[C@@H](O)CN2C(=O)[C@H]([C@@H](C)O)NC1=O [Example 13] (Arachidoyl-[Orn(4R-OH,5R-OH)]T[Hyp][hTyr(3S-OH,4S-OH)]T[Pro(3S-OH,4S-Me)]; lactam 1-C)    0 ng/mL
CCCCCCCCCCCCCCCCCCCCCC(=O)N[C@H]1C[C@@H](O)[C@@H](O)NC(=O)[C@@H]2[C@@H](O)[C@@H](C)CN2C(=O)[C@H]([C@@H](C)O)NC(=O)[C@H]([C@H](O)[C@@H](O)c2ccc(O)cc2)NC(=O)[C@@H]2C[C@@H](O)CN2C(=O)[C@H]([C@@H](C)O)NC1=O [Example 15] (Docosanoyl-[Orn(4R-OH,5R-OH)]T[Hyp][hTyr(3S-OH,4S-OH)]T[Pro(3S-OH,4S-Me)]; lactam 1-C)    0 ng/mL
CCCCCCCC/C=C\CCCCCCCC(=O)N[C@H]1C[C@@H](O)[C@@H](O)NC(=O)[C@@H]2[C@@H](O)[C@@H](C)CN2C(=O)[C@H]([C@@H](C)O)NC(=O)[C@H]([C@H](O)[C@@H](O)c2ccc(O)cc2)NC(=O)[C@@H]2C[C@@H](O)CN2C(=O)[C@H]([C@@H](C)O)NC1=O [Example 7] (Oleoyl-[Orn(4R-OH,5R-OH)]T[Hyp][hTyr(3S-OH,4S-OH)]T[Pro(3S-OH,4S-Me)]; lactam 1-C)    0 ng/mL

Name the reported Blood Levels After Oral Administration In Mice value associated with the compound CCCCCCCCCCCC(=O)N[C@H]1C[C@@H](O)[C@@H](O)NC(=O)[C@@H]2[C@@H](O)[C@@H](C)CN2C(=O)[C@H]([C@@H](C)O)NC(=O)[C@H]([C@H](O)[C@@H](O)c2ccc(O)cc2)NC(=O)[C@@H]2C[C@@H](O)CN2C(=O)[C@H]([C@@H](C)O)NC1=O [Example 1] (Lauroyl-[Orn(4R-OH,5R-OH)]T[Hyp][hTyr(3S-OH,4S-OH)]T[Pro(3S-OH,4S-Me)]; lactam 1-C) 0 ng/mL
